Biological target: α-Synuclein (αS) aggregation (Homo sapiens, UniProt P37840)
Construct: made in house; host or cells: E. coli BL21(DE3)
Experiment: Thioflavin T (ThT) dye-based αS aggregation assay (de novo)
Type: biochemical
Details: Fig. 5f profile, time 6 hr
# cutoff 50 applies to ThT fluorescence intensity, Average; >= gives class 1, < gives class 0

1) Cc1ccc(NC(=O)c2ccc(NC(=O)c3ccc([N+](=O)[O-])c(NCCc4c[nH]c5ccccc45)n3)c(NCC3CCCCC3)n2)c(OCC(=O)O)n1 class 0
2) CCCC(CCC)C(=O)O class 0
3) OCCc1ccc(O)cc1 class 0

Attention now turns to another entry.
Query string: Could you verify whether the entry C=C(c1ccc(C(=O)O)cc1)c1cc2c(cc1C)C(C)(C)CCC2(C)C shows ThT fluorescence intensity, Average of no less than 50?
Result string: class 1
